procedureSummary: Competitive inhibition of SERCA (unknown origin) by liquid scintillation counting method
Parameters: species or system Homo sapiens
quantityMeasured: Ki
Include the unit right after the number.

// returns reported Ki for input "N=C(N)SCc1cc(CSC(=N)N)c(Br)c(CSC(=N)N)c1Br"
20 µM

----------
systemName: Sarcoplasmic/endoplasmic reticulum calcium ATPase 2 (Mus musculus)
Sequence (O55143 whole entry): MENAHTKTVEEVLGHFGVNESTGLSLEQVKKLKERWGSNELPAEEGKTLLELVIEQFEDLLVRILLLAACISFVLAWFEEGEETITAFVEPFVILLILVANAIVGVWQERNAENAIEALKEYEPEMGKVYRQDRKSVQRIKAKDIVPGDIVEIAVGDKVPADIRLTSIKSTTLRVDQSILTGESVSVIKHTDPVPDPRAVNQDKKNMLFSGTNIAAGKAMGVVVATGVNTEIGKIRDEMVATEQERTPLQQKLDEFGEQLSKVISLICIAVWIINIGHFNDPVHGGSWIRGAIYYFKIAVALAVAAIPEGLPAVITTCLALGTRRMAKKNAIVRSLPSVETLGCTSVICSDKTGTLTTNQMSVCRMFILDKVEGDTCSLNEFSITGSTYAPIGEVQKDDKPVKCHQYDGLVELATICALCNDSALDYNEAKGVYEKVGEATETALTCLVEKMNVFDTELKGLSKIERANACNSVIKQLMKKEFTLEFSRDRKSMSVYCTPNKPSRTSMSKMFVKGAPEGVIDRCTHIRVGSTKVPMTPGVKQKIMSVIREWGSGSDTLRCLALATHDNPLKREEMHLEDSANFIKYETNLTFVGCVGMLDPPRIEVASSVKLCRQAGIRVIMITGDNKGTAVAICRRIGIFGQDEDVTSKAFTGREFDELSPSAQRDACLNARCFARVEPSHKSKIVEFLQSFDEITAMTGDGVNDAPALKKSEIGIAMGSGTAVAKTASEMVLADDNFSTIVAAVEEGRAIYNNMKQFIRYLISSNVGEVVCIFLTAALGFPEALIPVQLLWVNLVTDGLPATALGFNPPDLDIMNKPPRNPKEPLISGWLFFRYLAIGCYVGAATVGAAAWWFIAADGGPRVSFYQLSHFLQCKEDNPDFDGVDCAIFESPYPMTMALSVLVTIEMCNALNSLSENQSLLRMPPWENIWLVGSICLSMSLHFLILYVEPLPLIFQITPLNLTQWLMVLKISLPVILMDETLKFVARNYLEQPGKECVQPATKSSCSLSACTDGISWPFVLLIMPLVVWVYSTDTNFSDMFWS
procedureSummary: Inhibition of SERCA2b in mouse testicular microsomes
pIC50: −log10 of the molar value.
quantityMeasured: pIC50

GET /values?readout=pIC50&system=Sarcoplasmic/endoplasmic reticulum calcium ATPase 2 (Mus musculus)&item= "CCCCCCCCCc1ccc(O)cc1"
5.22 to 6.46

----------
procedureSummary: Inhibition of Sodium/potassium-transporting ATPase in dog kidney peincubated for 5 mins followed by addition of ATP and measured after 15 mins
Assay type: tissue-based, Canis lupus familiaris
pIC50: −log10 of the molar value.
quantityMeasured: pIC50

// returns reported pIC50 for input "CC1=CCC[C@@H]2[C@@](C)(CC/C(C)=C/Cn3c[n+](C)c4ncnc(N)c43)[C@H](C)CC[C@@]12C"
4.54 to 4.96

----------
Item-by-item account of IC50
procedureSummary: Inhibition of porcine cerebellar microsomes SERCA2b by enzyme-coupled method
Parameters: species or system Sus scrofa domesticus, Cerebellum
All answers are understood in µM, so give the number only.

Some entries whose results are on file:
CCOC(=O)CC1C(C(=O)OCC)=C(N)Oc2ccc(-c3ccccc3)cc21 (stereo not given) | 23
CC(C)(O)[C@H]1O[C@H]2CC[C@@]3(C)[C@@](O)(CC[C@H]4Cc5c([nH]c6ccccc56)[C@@]43C)C2=CC1=O [PAXILLINE] | 5

// returns reported IC50 for input C[C@H](C[C@H](O)[C@H]1OC1(C)C)C1=C2C[C@H](O)[C@H]3[C@@]4(C)CCC(=O)C(C)(C)[C@@H]4CC[C@]3(C)[C@@]2(C)CC1 [ALISOL B]
27

----------
systemName: Potassium-transporting ATPase (Sus scrofa, UniProt P19156)
Sequence (P18434 whole entry): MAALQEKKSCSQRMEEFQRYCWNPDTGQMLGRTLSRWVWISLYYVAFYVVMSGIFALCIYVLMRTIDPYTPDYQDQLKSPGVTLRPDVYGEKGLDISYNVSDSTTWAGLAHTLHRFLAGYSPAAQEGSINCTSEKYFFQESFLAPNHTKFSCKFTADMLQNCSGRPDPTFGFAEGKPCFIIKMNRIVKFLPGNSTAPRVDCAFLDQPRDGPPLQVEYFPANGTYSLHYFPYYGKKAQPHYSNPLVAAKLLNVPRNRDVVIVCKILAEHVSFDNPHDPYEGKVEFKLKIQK
Sequence (P19156 whole entry): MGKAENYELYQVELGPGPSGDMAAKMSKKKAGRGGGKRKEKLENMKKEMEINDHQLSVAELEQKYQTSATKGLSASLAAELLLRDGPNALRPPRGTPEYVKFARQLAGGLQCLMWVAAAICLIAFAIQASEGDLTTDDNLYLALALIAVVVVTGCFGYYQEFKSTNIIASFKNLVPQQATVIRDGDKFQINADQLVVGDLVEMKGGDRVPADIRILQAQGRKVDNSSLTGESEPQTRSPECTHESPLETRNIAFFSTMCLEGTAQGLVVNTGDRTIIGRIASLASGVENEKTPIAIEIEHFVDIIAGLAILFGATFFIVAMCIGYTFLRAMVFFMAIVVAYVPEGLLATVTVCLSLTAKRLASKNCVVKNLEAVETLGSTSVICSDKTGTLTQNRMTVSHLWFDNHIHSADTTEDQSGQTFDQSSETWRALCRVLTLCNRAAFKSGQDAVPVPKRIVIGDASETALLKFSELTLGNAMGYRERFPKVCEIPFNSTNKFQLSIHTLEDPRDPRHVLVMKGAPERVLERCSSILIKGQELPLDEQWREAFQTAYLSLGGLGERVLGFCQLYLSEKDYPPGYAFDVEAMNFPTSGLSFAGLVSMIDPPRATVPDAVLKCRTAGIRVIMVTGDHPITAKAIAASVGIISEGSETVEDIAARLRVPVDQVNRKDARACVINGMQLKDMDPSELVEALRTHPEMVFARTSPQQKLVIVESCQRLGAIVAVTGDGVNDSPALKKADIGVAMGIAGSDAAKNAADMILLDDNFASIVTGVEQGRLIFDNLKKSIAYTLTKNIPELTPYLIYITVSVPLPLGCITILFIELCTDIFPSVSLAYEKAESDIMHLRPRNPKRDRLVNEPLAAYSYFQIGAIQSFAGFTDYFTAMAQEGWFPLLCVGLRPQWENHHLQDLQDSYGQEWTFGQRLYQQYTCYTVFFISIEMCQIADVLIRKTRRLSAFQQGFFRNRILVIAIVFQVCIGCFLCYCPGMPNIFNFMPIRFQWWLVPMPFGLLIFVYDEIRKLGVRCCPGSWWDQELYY
procedureSummary: Inhibition of pig gastric mucosa Potassium-transporting ATPase by malachite green based colorimetric method
quantityMeasured: IC50

// returns reported IC50 for input Clc1ccccc1C(c1ccccc1)(c1ccccc1)n1ccnc1 [CLOTRIMAZOLE]
5.2 µM

----------
procedureSummary: Inhibition of porcine cardiac microsomes SERCA2a by enzyme-coupled method
Set-up: species or system Sus scrofa domesticus, Heart
quantityMeasured: pIC50
Please keep in mind that pIC50 is minus log10 of the molar concentration; only the number is needed.

// returns reported pIC50 for input CC(C)(O)[C@H]1O[C@H]2CC[C@@]3(C)[C@@](O)(CC[C@H]4Cc5c([nH]c6ccccc56)[C@@]43C)C2=CC1=O [PAXILLINE]
5.30

----------
systemName: Sarcoplasmic/endoplasmic reticulum calcium ATPase 1 (Oryctolagus cuniculus, UniProt P04191)
Sequence (P04191 whole entry): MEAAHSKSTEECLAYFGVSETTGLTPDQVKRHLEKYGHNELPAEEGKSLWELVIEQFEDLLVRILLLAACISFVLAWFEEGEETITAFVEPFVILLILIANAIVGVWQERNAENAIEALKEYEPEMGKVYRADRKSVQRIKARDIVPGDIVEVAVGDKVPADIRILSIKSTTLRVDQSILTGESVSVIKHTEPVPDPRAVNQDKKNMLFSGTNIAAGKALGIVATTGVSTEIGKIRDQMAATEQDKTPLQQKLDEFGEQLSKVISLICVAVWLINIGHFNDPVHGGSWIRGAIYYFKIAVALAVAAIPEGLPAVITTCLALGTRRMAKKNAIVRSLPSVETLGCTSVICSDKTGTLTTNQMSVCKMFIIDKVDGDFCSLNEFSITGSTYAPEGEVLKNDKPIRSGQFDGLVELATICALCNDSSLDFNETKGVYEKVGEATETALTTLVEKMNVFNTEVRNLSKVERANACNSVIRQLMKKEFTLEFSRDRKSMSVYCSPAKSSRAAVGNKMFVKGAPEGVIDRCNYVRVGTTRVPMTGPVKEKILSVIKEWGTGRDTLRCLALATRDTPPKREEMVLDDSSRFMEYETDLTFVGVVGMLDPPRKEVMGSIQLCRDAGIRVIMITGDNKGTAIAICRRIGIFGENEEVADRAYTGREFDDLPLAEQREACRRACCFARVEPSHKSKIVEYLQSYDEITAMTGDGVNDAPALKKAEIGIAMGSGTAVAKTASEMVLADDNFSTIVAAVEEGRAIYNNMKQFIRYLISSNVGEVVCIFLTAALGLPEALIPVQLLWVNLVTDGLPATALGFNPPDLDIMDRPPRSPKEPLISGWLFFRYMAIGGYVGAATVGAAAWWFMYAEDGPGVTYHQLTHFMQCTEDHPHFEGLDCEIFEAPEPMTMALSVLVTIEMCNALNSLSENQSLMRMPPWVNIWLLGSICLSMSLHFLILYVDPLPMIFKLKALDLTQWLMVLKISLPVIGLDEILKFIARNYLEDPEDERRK
procedureSummary: Inhibition of rabbit skeletal muscle microsomes FITC-labelled SERCA1a incubated for 1 hr by fluorescence spectrophotometric method
quantityMeasured: IC50

// returns reported IC50 for input "NCCOB(c1ccccc1)c1ccccc1"
70 to 700 µM

----------
systemName: Sarcoplasmic/endoplasmic reticulum calcium ATPase 2 (Homo sapiens)
Sequence (P16615 whole entry): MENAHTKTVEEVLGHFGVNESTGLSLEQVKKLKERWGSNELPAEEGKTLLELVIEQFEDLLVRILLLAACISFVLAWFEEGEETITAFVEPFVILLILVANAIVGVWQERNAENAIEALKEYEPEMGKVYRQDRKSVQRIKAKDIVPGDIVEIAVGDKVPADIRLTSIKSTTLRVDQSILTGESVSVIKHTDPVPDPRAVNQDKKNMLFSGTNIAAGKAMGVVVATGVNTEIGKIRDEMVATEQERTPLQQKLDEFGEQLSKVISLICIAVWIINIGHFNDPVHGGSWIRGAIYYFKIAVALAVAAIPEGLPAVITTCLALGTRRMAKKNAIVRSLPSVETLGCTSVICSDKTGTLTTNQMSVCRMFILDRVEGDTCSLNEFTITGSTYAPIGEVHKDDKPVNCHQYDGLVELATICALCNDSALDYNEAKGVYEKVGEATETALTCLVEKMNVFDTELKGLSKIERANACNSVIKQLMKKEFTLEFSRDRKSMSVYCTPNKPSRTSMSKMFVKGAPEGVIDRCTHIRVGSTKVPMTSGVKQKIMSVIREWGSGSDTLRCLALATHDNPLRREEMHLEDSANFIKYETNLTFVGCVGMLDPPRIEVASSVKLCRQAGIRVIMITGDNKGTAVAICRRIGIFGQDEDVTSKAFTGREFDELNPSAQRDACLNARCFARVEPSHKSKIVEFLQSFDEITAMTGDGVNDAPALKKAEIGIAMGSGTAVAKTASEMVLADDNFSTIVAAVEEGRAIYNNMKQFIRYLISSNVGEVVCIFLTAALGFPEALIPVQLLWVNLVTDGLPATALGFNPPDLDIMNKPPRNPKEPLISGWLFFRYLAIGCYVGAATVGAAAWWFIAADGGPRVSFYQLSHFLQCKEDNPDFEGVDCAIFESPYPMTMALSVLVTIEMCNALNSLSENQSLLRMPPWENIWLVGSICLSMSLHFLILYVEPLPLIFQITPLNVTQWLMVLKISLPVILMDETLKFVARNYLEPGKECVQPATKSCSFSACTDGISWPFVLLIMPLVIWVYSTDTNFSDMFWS
procedureSummary: Inhibition of human SERCA2b expressed in COS7 cells microsomal membranes preincubated for 10 mins followed by addition of ATP and measured after 40 mins by ELISA method
Type: cell-based
quantityMeasured: pKi
Please keep in mind that pKi is minus log10 of the molar concentration; only the number is needed.

GET /values?readout=pKi&system=Sarcoplasmic/endoplasmic reticulum calcium ATPase 2 (Homo sapiens)&item= COc1cc(/C=C/C(=O)CC(=O)/C=C/c2ccc(O)c(OC)c2)ccc1O [CURCUMIN]
4.28
